System: NCI-H460
Assay: Growth inhibition of human NCI-H460 cells at 10 uM after 72 hrs by MTT assay relative to control
Assay type: functional
Settings: NCI-H460, 72 h, read-out: GI
The compounds listed here are annotated with their inhibition of growth at 10 µM.
The figure you give is taken to be in %; do not add the unit.

Below, 3 compounds whose answers are already recorded.
| Given smiles | inhibition of growth at 10 µM, % |
| --- | --- |
| NC(=O)c1ccccc1NC(=O)C#Cc1ccccc1 | 39.7 |
| NC(=O)c1cc(I)ccc1NC(=O)CCc1ccccc1 | 24.1 |
| NC(=O)c1cc(Br)ccc1NC(=O)C#Cc1ccccc1 | 23.6 |

Next item in the queue.
**Query** Answer with reported inhibition of growth at 10 µM of COc1ccccc1/C=C/C(=O)Nc1ccccc1C(N)=O
**Result** 21.3

###

The compounds listed here are annotated with their inhibition of growth at 10 µM.
Test system: NCI-H460
Assay: Growth inhibition of human NCI-H460 cells at 10 uM after 72 hrs by MTT assay relative to control
Assay type: functional
Details: NCI-H460, 72 h, read-out: GI
The figure you give is taken to be in %; do not add the unit.

Below, 3 compounds whose answers are already recorded.
| Given smiles | inhibition of growth at 10 µM / % |
| --- | --- |
| NC(=O)c1cc(I)ccc1NC(=O)/C=C/c1cccc(Cl)c1 | 36.6 |
| NC(=O)c1cc(Cl)ccc1NC(=O)CCc1ccccc1 | 15.6 |
| COc1ccc(NC(=O)/C=C/c2ccccc2)c(C(N)=O)c1 | 40.6 |

**Query** Answer with reported inhibition of growth at 10 µM of COc1ccc(NC(=O)/C=C/c2ccccc2OC)c(C(N)=O)c1
**Result** 31.4

**Query** Answer with reported inhibition of growth at 10 µM of COc1ccccc1/C=C/C(=O)Nc1ccc(I)cc1C(N)=O
**Result** 19.3

**Query** Answer with reported inhibition of growth at 10 µM of NC(=O)c1cc(Cl)ccc1NC(=O)C#Cc1ccccc1
**Result** 53.6

**Query** Answer with reported inhibition of growth at 10 µM of COc1cc2c(c(OC)c1OC)-c1ccc(OC)c(=O)cc1[C@@H](NC(C)=O)CC2
**Result** 60.1

**Query** Answer with reported inhibition of growth at 10 µM of NC(=O)c1cc(I)ccc1NC(=O)C#Cc1ccccc1
**Result** 43

**Query** Answer with reported inhibition of growth at 10 µM of COc1ccccc1/C=C/C(=O)Nc1ccc(Cl)cc1C(N)=O
**Result** 29.8

**Query** Answer with reported inhibition of growth at 10 µM of NC(=O)c1cc(I)ccc1NC(=O)/C=C/c1ccc(Cl)cc1
**Result** 20.6

**Query** Answer with reported inhibition of growth at 10 µM of Cc1ccc(NC(=O)C#Cc2ccccc2)c(C(N)=O)c1
**Result** 11.9

**Query** Answer with reported inhibition of growth at 10 µM of COc1ccccc1/C=C/C(=O)Nc1ccc(C)cc1C(N)=O
**Result** 12.6

###

Tested on: HCT-116
Assay: Growth inhibition of human HCT116 cells at 10 uM after 72 hrs by MTT assay relative to control
Format: functional
Settings: HCT-116, 72 h, read-out: GI
Value kind: inhibition of growth at 10 µM (%)
The figure you give is taken to be in %; do not add the unit.

Below, 3 molecules whose answers are already recorded.
| Given smiles | inhibition of growth at 10 µM [%] |
| --- | --- |
| NC(=O)c1cc(I)ccc1NC(=O)C#Cc1ccccc1 | 39 |
| NC(=O)c1cc(I)ccc1NC(=O)/C=C/c1cccc(Cl)c1 | 15.3 |
| COc1ccccc1/C=C/C(=O)Nc1ccc(I)cc1C(N)=O | 18.1 |

Next item in the queue.
**Query** Answer with reported inhibition of growth at 10 µM of NC(=O)c1cc(Cl)ccc1NC(=O)C#Cc1ccccc1
**Result** 49.9

###

Tested on: HCT-116
Assay: Growth inhibition of human HCT116 cells at 10 uM after 72 hrs by MTT assay relative to control
Type: functional
Details: HCT-116, 72 h, read-out: GI
The compounds listed here are annotated with their inhibition of growth at 10 µM.
The figure you give is taken to be in %; do not add the unit.

Below, 5 compounds whose answers are already recorded.
| Given smiles | Output unit | inhibition of growth at 10 µM |
| --- | --- | --- |
| NC(=O)c1cc(Cl)ccc1NC(=O)CCc1ccccc1 | % | 8.6 |
| COc1ccc(NC(=O)/C=C/c2ccccc2OC)c(C(N)=O)c1 | % | 34.5 |
| COc1ccccc1/C=C/C(=O)Nc1ccc(Cl)cc1C(N)=O | % | 17.2 |
| COc1cc(NC(=O)C#Cc2ccccc2)c(C(N)=O)cc1OC | % | 21.6 |
| COc1cc(NC(=O)/C=C/c2ccccc2)c(C(N)=O)cc1OC | % | 11 |

**Query** Answer with reported inhibition of growth at 10 µM of NC(=O)c1ccccc1NC(=O)CCc1ccccc1
**Result** 13.2

**Query** Answer with reported inhibition of growth at 10 µM of NC(=O)c1cc(I)ccc1NC(=O)/C=C/c1cccc(Br)c1
**Result** 17.1

**Query** Answer with reported inhibition of growth at 10 µM of COc1ccc(NC(=O)/C=C/c2ccccc2)c(C(N)=O)c1
**Result** 15

**Query** Answer with reported inhibition of growth at 10 µM of NC(=O)c1ccccc1NC(=O)C#Cc1ccccc1
**Result** 49.9

**Query** Answer with reported inhibition of growth at 10 µM of COc1ccccc1/C=C/C(=O)Nc1cc(OC)c(OC)cc1C(N)=O
**Result** 13.9

**Query** Answer with reported inhibition of growth at 10 µM of NC(=O)c1cc(I)ccc1NC(=O)CCc1ccccc1
**Result** 19

###

Tested on: K562
Test: Cell cycle arrest in human K562 cells assessed as accumulation at G2/M phase at 10 uM after 24 hrs by annexin V-FITC/PI staining-based FACS flow cytometric analysis (reference value: 28.9 +/- 1.3%)
Format: functional
Value kind: Activity (%)
The figure you give is taken to be in %; do not add the unit.

Below, 3 molecules whose answers are already recorded.
| Given smiles | Study system | Activity, % |
| --- | --- | --- |
| COc1ccc(NC(=O)/C=C/c2ccccc2)c(C(N)=O)c1 | K562 | 40.6 |
| COc1cc2c(c(OC)c1OC)-c1ccc(OC)c(=O)cc1[C@@H](NC(C)=O)CC2 | K562 | 63.3 |
| NC(=O)c1cc(Cl)ccc1NC(=O)CCc1ccccc1 | K562 | 40.9 |

Next item in the queue.
**Query** Answer with reported Activity of NC(=O)c1ccccc1NC(=O)C#Cc1ccccc1
**Result** 36

###

Test system: NCI-H460
Experiment: Growth inhibition of human NCI-H460 cells at 10 uM after 72 hrs by MTT assay relative to control
Type: functional
Settings: NCI-H460, 72 h, read-out: GI
The compounds listed here are annotated with their inhibition of growth at 10 µM.

Below, 3 compounds whose answers are already recorded.
| Given smiles | Value kind | Reported measurement |
| --- | --- | --- |
| COc1cc(NC(=O)CCc2ccccc2)c(C(N)=O)cc1OC | inhibition of growth at 10 µM | < 10% |
| COc1cc(NC(=O)C#Cc2ccccc2)c(C(N)=O)cc1OC | inhibition of growth at 10 µM | < 10% |
| COc1ccccc1/C=C/C(=O)Nc1cc(OC)c(OC)cc1C(N)=O | inhibition of growth at 10 µM | < 10% |

**Query** Answer with reported inhibition of growth at 10 µM of NC(=O)c1ccccc1NC(=O)CCc1ccccc1
**Result** < 10%

**Query** Answer with reported inhibition of growth at 10 µM of Cc1ccc(NC(=O)CCc2ccccc2)c(C(N)=O)c1
**Result** < 10%

**Query** Answer with reported inhibition of growth at 10 µM of COc1ccc(NC(=O)CCc2ccccc2)c(C(N)=O)c1
**Result** < 10%
